# EXPERIMENTAL_TARGET: T1, B3GNT2 (Homo sapiens, UniProt Q9NY97)
# T1 construct: The respective ORFs of candidate genes [CD274 (NM_014143), MCL1 (NM_021960), JUNB (NM_002229), and B3GNT2 (NM_006577)] were synthesized; expressed in transfected cells; host or cells: A375 melanoma cells (lentiviral ORF overexpression)
# T1 sequence (Q9NY97 1-397): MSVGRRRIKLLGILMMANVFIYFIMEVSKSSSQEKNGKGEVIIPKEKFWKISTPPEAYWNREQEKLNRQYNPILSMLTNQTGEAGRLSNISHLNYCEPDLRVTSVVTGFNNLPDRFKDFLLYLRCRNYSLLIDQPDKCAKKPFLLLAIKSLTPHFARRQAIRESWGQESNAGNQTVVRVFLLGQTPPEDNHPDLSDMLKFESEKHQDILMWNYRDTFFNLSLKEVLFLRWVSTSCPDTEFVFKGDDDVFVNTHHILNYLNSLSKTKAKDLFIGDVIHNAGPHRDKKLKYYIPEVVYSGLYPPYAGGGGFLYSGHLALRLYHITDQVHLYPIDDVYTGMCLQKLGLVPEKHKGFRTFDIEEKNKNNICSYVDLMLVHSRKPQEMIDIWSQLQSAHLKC
# RUN_DESCRIPTION: Co-IP of FLAG-tagged B3GNT2 followed by mass spectrometry
# Assay type: cell-based
# Set-up: unit not given here
# PROTOCOL_CONDITIONS: Co-IP followed by mass spectrometry of B3GNT2; C-term tag, FLAG pull-down

MOLECULE	C-term flag
TXN (protein) VKQIESKTAFQEALDAAGDKLVVVDFSATWCGPCKMIKPFFHSLSEKYSNVIFLEVDVDDCQDVASECEVKCMPTFQFFKKGQKVGEFSGANKEKLEATINELV	3
SPARC (protein) APQQEALPDETEVVEETVAEVTEVSVGANPVQVEVGEFDDGAEETEEEVVAENPCQNHHCKHGKVCELDENNTPMCVCQDPTSCPAPIGEFEKVCSNDNKTFDSSCHFFATKCTLEGTKKGHKLHLDYIGPCKYIPPCLDSELTEFPLRMRDWLKNVLVTLYERDEDNNLLTEKQKLRVKKIHENEKRLEAGDHPVELLARDFEKNYNMYIFPVHWQFGQLDQHPIDGYLSHTELAPLRAPLIPMEHCTTRFFETCDLDNDKYIALDEWAGCFGIKQKDIDKDLVI	4
SERPINB3 (protein) MNSLSEANTKFMFDLFQQFRKSKENNIFYSPISITSALGMVLLGAKDNTAQQIKKVLHFDQVTENTTGKAATYHVDRSGNVHHQFQKLLTEFNKSTDAYELKIANKLFGEKTYLFLQEYLDAIKKFYQTSVESVDFANAPEESRKKINSWVESQTNEKIKNLIPEGNIGSNTTLVLVNAIYFKGQWEKKFNKEDTKEEKFWPNKNTYKSIQMMRQYTSFHFASLEDVQAKVLEIPYKGKDLSMIVLLPNEIDGLQKLEEKLTAEKLMEWTSLQNMRETRVDLHLPRFKVEESYDLKDTLRTMGMVDIFNGDADLSGMTGSRGLVLSGVLHKAFVEVTEEGAEAAAATAVVGFGSSPTSTNEEFHCNHPFLFFIRQNKTNSILFYGRFSSP	9

Data provenance: patent US20240261333A1
